System: TTR
methodSummary: TTR editing in HUH7 cells transfected with Spy Cas9 mRNA and dgRNAs (Table 5)
Assay type: cell-based, human
experimentalContext: HUH7 cells co-transfected with Spy Cas9 mRNA (SEQ ID NO:2) and dgRNAs
measuredParameter: Avg % Deletion (%)
Kindly provide the numeric value in % only, without the unit symbol.

Guide cases for Avg % Deletion, answers given:
biosequence	unitName	valueReported
GCUGCAUGGGCUCACAACUG (tested as dual guide RNA, chemistry not given here) [CR003361]	%	22.44
UGCACGGCCACAUUGAUGGC (tested as dual guide RNA, chemistry not given here) [CR003349]	%	4.82
CGGCAAUGGUGUAGCGGCGG (tested as dual guide RNA, chemistry not given here) [CR003376]	%	18.55
ACCUGGGAGCCAUUUGCCUC (tested as dual guide RNA, chemistry not given here) [CR003354]	%	11.46
AAUGGUGUAGCGGCGGGGGC (tested as dual guide RNA, chemistry not given here) [CR003375]	%	2.25
AUAGGAGUAGGGGCUCAGCA (tested as dual guide RNA, chemistry not given here) [CR003383]	%	41.19
GGAGUAGGGGCUCAGCAGGG (tested as dual guide RNA, chemistry not given here) [CR003382]	%	34.47
CAGAGGACACUUGGAUUCAC (tested as dual guide RNA, chemistry not given here) [CR003343]	%	66.97

Summary for this sequence, GGCUGUCGUCACCAAUCCCA (tested as dual guide RNA, chemistry not given here) [CR003391] : Avg % Deletion is 59.70

---

Reported Avg % Edit by item:
System: TTR
methodSummary: TTR editing in HEK293_Cas9 cells transfected with dgRNAs (Table 4)
Type: cell-based, human
experimentalContext: HEK293_Cas9 cells (constitutively express Spy Cas9) transfected with dgRNAs
Kindly provide the numeric value in % only, without the unit symbol.

biosequence	Avg % Edit (%)
CCGUGGUGGAAUAGGAGUAG (tested as dual guide RNA, chemistry not given here) [CR003386]	33.12

Summary for this sequence, GGGGCUCAGCAGGGCGGCAA (tested as dual guide RNA, chemistry not given here) [CR003381] : Avg % Edit is 22.04

Summary for this sequence, CCCCUACUCCUAUUCCACCA (tested as dual guide RNA, chemistry not given here) [CR003385] : Avg % Edit is 26.19

Summary for this sequence, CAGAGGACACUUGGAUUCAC (tested as dual guide RNA, chemistry not given here) [CR003343] : Avg % Edit is 24.36

Summary for this sequence, ACCUCUGCAUGCUCAUGGAA (tested as dual guide RNA, chemistry not given here) [CR003371] : Avg % Edit is 25.60

Summary for this sequence, AAAGGCUGCUGAUGACACCU (tested as dual guide RNA, chemistry not given here) [CR003353] : Avg % Edit is 25.03

Summary for this sequence, UUUGACCAUCAGAGGACACU (tested as dual guide RNA, chemistry not given here) [CR003344] : Avg % Edit is 33.87

Summary for this sequence, GCGGCGGGGGCCGGAGUCGU (tested as dual guide RNA, chemistry not given here) [CR003374] : Avg % Edit is 10.91

Summary for this sequence, GCGGCAAUGGUGUAGCGGCG (tested as dual guide RNA, chemistry not given here) [CR003377] : Avg % Edit is 24.70

Summary for this sequence, GGCGGCAAUGGUGUAGCGGC (tested as dual guide RNA, chemistry not given here) [CR003378] : Avg % Edit is 20.97

Summary for this sequence, CAUUGAUGGCAGGACUGCCU (tested as dual guide RNA, chemistry not given here) [CR003347] : Avg % Edit is 21.45

Summary for this sequence, CCUCUGCAUGCUCAUGGAAU (tested as dual guide RNA, chemistry not given here) [CR003370] : Avg % Edit is 34.22

Summary for this sequence, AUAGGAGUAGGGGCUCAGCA (tested as dual guide RNA, chemistry not given here) [CR003383] : Avg % Edit is 40.47

Summary for this sequence, CCAGUCCAGCAAGGCAGAGG (tested as dual guide RNA, chemistry not given here) [CR003337] : Avg % Edit is 42.72
